- system: T1, HLA-A*0201 (human)
- T1 construct: also called HLA-A2.1; HLA-A2
- measurement-protocol: T2 cell HLA-A*0201 stabilization, flow cytometry with mAb BB7.2
measured-metric: Fluorescence Index (HLA-A*0201 stabilization), 25 µM peptide
Just the number, please, no unit attached.

The following binders have reported results that may help.
binder: KVWGQYWQV (synthetic; N-terminal anchor (position 2) replaced by V) [gp100 154-162 epitope-analogue KVWGQYWQV]
data-value: 1.57
//
binder: KLWGQYWQV (synthetic; N-terminal anchor (position 2) replaced by L) [gp100 154-162 epitope-analogue KLWGQYWQV]
data-value: 1.55

stdin: Quick check: Fluorescence Index (HLA-A*0201 stabilization), 25 µM peptide of KIWGQYWQV (synthetic; N-terminal anchor (position 2) replaced by I) [gp100 154-162 epitope-analogue KIWGQYWQV] ?
stdout: 1.43

stdin: Which Fluorescence Index (HLA-A*0201 stabilization), 25 µM peptide reading was recorded for the binder KMWGQYWQV (synthetic; N-terminal anchor (position 2) replaced by M) [gp100 154-162 epitope-analogue KMWGQYWQV] ?
stdout: 1.28

Ref: patent US20040156861A1
